Target: T1, in-line fusion protein of human IL-36R extracellular domain and IL1RAcP extracellular domain expressed with … (human; mouse, UniProt Q9HB29 20-337; Q9NPH3 21-359, limits assumed)
T1 construct: not shown: mouse IgG2a Fc
T1 sequence (looked up): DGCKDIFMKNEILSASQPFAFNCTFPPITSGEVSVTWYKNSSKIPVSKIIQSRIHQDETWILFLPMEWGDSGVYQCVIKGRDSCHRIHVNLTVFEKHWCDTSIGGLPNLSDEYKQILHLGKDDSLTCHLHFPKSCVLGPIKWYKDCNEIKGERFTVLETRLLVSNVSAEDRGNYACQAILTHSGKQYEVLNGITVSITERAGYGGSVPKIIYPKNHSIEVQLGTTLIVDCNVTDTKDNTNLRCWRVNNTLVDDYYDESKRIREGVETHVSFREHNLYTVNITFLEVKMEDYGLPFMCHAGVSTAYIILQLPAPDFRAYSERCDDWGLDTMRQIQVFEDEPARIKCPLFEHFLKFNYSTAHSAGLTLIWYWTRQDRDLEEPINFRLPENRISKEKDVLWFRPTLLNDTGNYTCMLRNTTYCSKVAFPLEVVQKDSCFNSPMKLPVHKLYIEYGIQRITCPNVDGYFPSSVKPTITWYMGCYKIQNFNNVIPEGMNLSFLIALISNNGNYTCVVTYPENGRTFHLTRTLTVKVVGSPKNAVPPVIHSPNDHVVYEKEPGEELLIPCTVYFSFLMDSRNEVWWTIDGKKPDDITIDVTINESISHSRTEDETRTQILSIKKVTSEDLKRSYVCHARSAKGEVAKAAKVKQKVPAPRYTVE
Assay: SPR Biacore 4000, mAb captured on anti-hFc, 25C
assay readout: kon (M⁻¹ s⁻¹)
Supply the numeric figure in M⁻¹ s⁻¹, leaving out any unit text.

Example entries begin here.
| binder | unit abbreviation | kon |
| --- | --- | --- |
| H4H14758P (antibody, human IgG4 S228P, kappa, V domains shown, Fully human anti-IL-36R antibody) VH: EVQLVESGGGLVQPGRSLRLSCAASGFTFDDYAMHWVRQAPGKGLEWVSSVRWNGGIIGYADSVKGRFTISRDNAKNSLYLQMNSLRPEDTALYYCAKDIGDVLTGYYGEYGMDVWGQGTTVTVSS VL: DIQMTQSPSSLSASVGDRVTIACRASQSITTYLNWYQQKPGKAPKLLIYAASSLQSGVPSRFSGSGSGTDFTLTISSLQPEDFATYYCQQSYISPYTFGQGTKLEIKR | M⁻¹ s⁻¹ | 436000 |
| H4H14700P2 (antibody, human IgG4 S228P, kappa, V domains shown, Fully human anti-IL-36R antibody) VH: EVQLVESGGGLVQPGRSLRLSCAASGFTFDDYAMHWVRQTPGKGLEWVSVISWNSDVIAYSDSVKGRFTISRDNAKNSLYLQMNSLGTEDTALYYCAKGHNWNFFDYWGQGTLVTVSS VL: EIVLTQSPATLSLSPGERATLSCRASQSVSSYLAWYQQKPGQAPRLLIYNVANRATDIPARFSGSGSGTDFTLTISGLEPEDFAVYFCQQRSNWPLTFGGGTKVEIKR | M⁻¹ s⁻¹ | 442000 |

Query: Which value of kon has been reported for H4H14731P (antibody, human IgG4 S228P, kappa, V domains shown, Fully human anti-IL-36R antibody) VH: QLQLQESGPGLVKPSETLSLTCTVSGGSISSSNYYWGWIRQPPGKRLEWIGSIYYSGSTYYNPSLKTRVTISVDTSKNQFSLKLTSVTAADTAVYYCAREEAAALTHFDFWGQGTLVTVSS VL: DIQMTQSPSSLSASVGDRVTITCRASQSISNYLNWYQQKPGKAPKLLIFAASSLQSGVPSRFSGSGSGTDFTLTISSLQPEDFATYYCQHSHSSHPITFGQGTRLEIKR in the records?
Result: 45200
